B1: library; numbered along this chain (parent)
chain: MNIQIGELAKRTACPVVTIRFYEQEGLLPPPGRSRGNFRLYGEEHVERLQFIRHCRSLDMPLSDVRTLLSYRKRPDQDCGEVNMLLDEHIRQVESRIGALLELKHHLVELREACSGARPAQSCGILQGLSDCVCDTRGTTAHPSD

- Variants of: B1
- EXPERIMENT_DESCRIPTION: sfGFP reporter fluorescence (15 h) (µM FITC); higher = stronger transcriptional activation
- TEST_SETTINGS: library round: Round 0; ligand: 30 µM Zn
Class key for sfGFP reporter fluorescence values: low band = under 0.08, middle band = from 0.08 up to 0.8, high band = 0.8 and over

Previously resolved entries follow.
- MUTATION_ANNOTATION: "L27T"
  CLASS_NAME: "low band"
- MUTATION_ANNOTATION: "G42A"
  CLASS_NAME: "middle band"

Prompt line: Which class is correct for the following variant? `R20Y`
Response line: middle band

Prompt line: Band assignment needed for `K104D` please.
Response line: high band

Prompt line: GET /class?item= `E94F`
Response line: middle band

Prompt line: Kindly state the category for this variant: `P61D`
Response line: middle band

Prompt line: Which class holds `N83Y` ?
Response line: low band

Prompt line: Into which category would you place `P30W` ?
Response line: middle band

Prompt line: Looking at M60L D64K G128I , which class would you pick?
Response line: high band

Prompt line: Just checking, what class would you give `V16E` here?
Response line: high band

Prompt line: Exercise: read the entry `D131A` and state which class it falls under.
Response line: high band
